# targetSystem: S. aureus RNA polymerase core enzyme + S. aureus σA (Staphylococcus aureus, UniProt P47768+Q2G0N5)
# Sequence (P0A0J0 whole entry): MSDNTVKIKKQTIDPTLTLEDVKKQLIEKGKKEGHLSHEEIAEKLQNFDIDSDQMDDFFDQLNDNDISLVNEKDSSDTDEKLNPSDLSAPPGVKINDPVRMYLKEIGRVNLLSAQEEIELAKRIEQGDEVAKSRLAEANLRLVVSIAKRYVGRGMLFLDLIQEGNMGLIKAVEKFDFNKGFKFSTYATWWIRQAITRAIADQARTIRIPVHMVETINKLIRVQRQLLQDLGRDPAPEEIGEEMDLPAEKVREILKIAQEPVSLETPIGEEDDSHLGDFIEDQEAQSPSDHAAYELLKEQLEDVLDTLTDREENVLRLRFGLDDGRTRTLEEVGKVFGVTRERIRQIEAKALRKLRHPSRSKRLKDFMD
# Sequence (P47768 whole entry): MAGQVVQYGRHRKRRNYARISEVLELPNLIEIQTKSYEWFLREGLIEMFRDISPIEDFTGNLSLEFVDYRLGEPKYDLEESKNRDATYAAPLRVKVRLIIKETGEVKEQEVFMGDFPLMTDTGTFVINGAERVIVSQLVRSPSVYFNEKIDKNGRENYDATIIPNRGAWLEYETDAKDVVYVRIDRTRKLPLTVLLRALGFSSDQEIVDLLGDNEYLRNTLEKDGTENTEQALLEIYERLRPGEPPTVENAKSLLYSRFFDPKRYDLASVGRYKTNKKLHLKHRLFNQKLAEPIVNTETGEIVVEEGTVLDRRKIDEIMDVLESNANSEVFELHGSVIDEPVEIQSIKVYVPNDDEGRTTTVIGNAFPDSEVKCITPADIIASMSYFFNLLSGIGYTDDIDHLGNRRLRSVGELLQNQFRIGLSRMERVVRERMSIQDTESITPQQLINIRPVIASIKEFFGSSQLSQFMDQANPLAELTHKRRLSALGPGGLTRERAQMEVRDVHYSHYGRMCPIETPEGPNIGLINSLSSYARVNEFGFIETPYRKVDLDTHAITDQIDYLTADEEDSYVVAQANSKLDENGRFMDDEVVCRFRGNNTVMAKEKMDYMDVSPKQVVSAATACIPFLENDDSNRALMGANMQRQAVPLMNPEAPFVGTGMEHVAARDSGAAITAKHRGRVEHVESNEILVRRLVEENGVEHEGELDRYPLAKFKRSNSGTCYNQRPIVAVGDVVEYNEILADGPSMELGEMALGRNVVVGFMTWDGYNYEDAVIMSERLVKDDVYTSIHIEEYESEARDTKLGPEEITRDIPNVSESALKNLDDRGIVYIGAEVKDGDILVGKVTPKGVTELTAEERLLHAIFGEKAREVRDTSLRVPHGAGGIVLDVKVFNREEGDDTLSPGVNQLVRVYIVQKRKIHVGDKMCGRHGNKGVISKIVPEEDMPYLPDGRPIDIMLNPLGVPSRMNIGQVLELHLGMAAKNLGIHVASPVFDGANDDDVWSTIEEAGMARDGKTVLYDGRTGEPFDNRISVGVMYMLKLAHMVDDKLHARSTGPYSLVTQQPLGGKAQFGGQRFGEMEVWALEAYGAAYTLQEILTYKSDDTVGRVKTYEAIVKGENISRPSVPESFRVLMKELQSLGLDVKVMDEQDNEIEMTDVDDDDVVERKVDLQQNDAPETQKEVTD
# Sequence (Q2G0N5 whole entry): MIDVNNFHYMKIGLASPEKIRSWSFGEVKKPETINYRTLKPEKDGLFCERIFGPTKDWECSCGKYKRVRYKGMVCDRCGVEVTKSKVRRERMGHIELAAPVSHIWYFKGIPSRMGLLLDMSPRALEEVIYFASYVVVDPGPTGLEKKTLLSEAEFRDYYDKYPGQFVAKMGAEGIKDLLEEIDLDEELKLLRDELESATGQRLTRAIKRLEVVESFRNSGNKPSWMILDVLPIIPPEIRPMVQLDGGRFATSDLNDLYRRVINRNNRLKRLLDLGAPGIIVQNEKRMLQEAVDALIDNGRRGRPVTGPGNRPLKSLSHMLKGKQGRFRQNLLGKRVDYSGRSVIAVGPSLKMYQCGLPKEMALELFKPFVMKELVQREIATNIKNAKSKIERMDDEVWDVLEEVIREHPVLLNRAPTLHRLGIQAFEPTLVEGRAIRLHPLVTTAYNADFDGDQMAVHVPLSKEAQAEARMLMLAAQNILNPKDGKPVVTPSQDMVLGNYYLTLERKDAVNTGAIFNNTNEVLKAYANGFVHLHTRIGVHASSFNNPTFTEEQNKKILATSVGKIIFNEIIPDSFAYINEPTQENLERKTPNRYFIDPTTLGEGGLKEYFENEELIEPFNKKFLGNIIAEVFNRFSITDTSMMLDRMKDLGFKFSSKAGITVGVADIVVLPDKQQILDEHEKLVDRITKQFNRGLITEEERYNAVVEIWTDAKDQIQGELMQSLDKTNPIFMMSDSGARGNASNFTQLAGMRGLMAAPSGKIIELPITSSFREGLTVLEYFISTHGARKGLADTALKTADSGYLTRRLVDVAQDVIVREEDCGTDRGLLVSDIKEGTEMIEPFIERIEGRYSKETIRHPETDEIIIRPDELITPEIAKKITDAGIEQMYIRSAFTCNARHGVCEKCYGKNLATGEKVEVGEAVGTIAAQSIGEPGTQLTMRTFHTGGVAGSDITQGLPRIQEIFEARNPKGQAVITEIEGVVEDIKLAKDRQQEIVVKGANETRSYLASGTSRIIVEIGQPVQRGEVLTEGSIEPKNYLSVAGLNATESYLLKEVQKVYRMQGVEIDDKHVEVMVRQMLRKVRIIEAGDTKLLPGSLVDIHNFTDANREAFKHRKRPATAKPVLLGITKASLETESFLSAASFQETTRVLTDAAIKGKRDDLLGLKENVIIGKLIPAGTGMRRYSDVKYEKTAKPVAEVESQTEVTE
# Sequence (Q2FW32 whole entry, further chain): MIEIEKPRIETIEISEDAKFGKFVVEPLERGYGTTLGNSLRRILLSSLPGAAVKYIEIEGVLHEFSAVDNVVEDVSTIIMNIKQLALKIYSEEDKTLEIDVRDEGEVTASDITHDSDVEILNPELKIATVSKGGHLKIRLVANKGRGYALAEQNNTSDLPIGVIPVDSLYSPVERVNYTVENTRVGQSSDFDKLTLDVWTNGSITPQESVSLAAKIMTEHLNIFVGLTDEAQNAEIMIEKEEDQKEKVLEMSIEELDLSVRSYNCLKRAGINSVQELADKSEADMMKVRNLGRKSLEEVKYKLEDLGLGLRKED
# protocolNotes: Fluorescence-detected assay of inhibition of Staphylococcus aureus RNA polymerase
# experimentalSetup: read-out: IC50 Sa RNAP
Parameter: pIC50. Scope: all listed entries.
# pIC50: negative log10 of molar concentration; output just the value

Examples with answers:
{"columns": ["molecule", "metricName", "reportedMeasurement"],
 "data": [
  ["O=C(CCc1ccc(Br)cc1)c1c(O)cc(O)cc1O", "pIC50", 5.43],
  ["O=C(CCc1ccc(C(F)(F)F)cc1C(F)(F)F)c1c(O)cc(O)cc1O", "pIC50", 5.43]
]}

Look up pIC50 for this compound: O=C(CCc1ccc(Cl)cc1)c1c(O)cc(O)cc1O
5.37

Look up pIC50 for this compound: O=C(CCc1ccccc1C(F)(F)F)c1c(O)cc(O)cc1O
5.32

Look up pIC50 for this compound: O=C(CCc1cccc(Cl)c1)c1c(O)cc(O)cc1O
5.05

----------
# Tested on: Staphylococcus aureus ATCC 12600
metricName: MIC (µg/mL)
Return type: number; implicit unit µg/mL.

Examples with answers:
{"columns": ["molecule", "metricName", "reportedMeasurement"],
 "data": [
  ["O=C(CCc1ccc(C(F)(F)F)cc1)c1c(O)cc(O)cc1O", "MIC", 12],
  ["O=C(CCc1ccc(C(F)(F)F)cc1C(F)(F)F)c1c(O)cc(O)cc1O", "MIC", 3.6],
  ["O=C(CCc1ccc(Br)cc1)c1c(O)cc(O)cc1O", "MIC", 10]
]}

Provide value of MIC for this record tested with Staphylococcus aureus ATCC 12600: Cc1cc(F)ccc1CCC(=O)c1c(O)cc(O)cc1O
16

Provide value of MIC for this record tested with Staphylococcus aureus ATCC 12600: O=C(CCc1cccc(Cl)c1)c1c(O)cc(O)cc1O
16

Provide value of MIC for this record tested with Staphylococcus aureus ATCC 12600: O=C(CCc1ccccc1Cl)c1c(O)cc(O)cc1O
16

Provide value of MIC for this record tested with Staphylococcus aureus ATCC 12600: CC(C)c1ccc(CCC(=O)c2c(O)cc(O)cc2O)cc1
9.8

Provide value of MIC for this record tested with Staphylococcus aureus ATCC 12600: CC(C)(C)c1ccc(CCC(=O)c2c(O)cc(O)cc2O)cc1
6.9

Provide value of MIC for this record tested with Staphylococcus aureus ATCC 12600: CCc1ccc(CCC(=O)c2c(O)cc(O)cc2O)cc1
12.5

Provide value of MIC for this record tested with Staphylococcus aureus ATCC 12600: O=C(CCc1ccc(Cl)cc1)c1c(O)cc(O)cc1O
4

Provide value of MIC for this record tested with Staphylococcus aureus ATCC 12600: O=C(CCc1ccccc1C(F)(F)F)c1c(O)cc(O)cc1O
14

----------
What follows is a collection of MIC values obtained with Staphylococcus aureus ATCC 12600.

Examples with answers:
{"columns": ["compound", "MIC"],
 "data": [
  ["O=C(CCc1ccc(F)cc1)c1c(O)cc(O)cc1O [OMTK21]", "> 40 µg/mL"],
  ["Cc1ccccc1CCC(=O)c1c(O)cc(O)cc1O [OMTK18]", "> 40 µg/mL"],
  ["COc1cccc(CCC(=O)c2c(O)cc(O)cc2O)c1 [OMTK15]", "> 40 µg/mL"]
]}

Turning now to a further compound:
Provide value of MIC for this record tested with Staphylococcus aureus ATCC 12600: COc1ccccc1CCC(=O)c1c(O)cc(O)cc1O [OMTK14]
> 40 µg/mL

Hey, just so you know, these numbers are from patent US9517994B2.
